// reported GI% per item
Test system: CAKI-1
Conditions: single dose 10 μM; renal carcinoma
// note: answer is a bare numeric in %

# example entries with known answers
INSERT INTO results (molecule, value_kind, value_units, meas_value) VALUES
  ('c1ccc(C2=NNC(c3cn(-c4ccccc4)nc3-c3cc4ccccc4o3)C2)cc1 (stereo not shown)', 'GI%', '%', 11.52),
  ('COc1ccc(C2=NNC(c3cn(-c4ccccc4)nc3-c3cc4ccccc4o3)C2)cc1 (stereo not shown)', 'GI%', '%', 17.83),
  ('CC(=O)N1N=C(c2nc3ccccc3[nH]2)CC1c1cn(-c2ccccc2)nc1-c1cc2ccccc2o1 (stereo not shown)', 'GI%', '%', 7.51);

Here is another molecule to look at.
Quick note, GI% for c1ccc(-n2cc(C3CC(c4nc5ccccc5[nH]4)=NN3)c(-c3cc4ccccc4o3)n2)cc1 (stereo not shown) landed at 92.45

* * *

System: A498
Conditions: single dose 10 μM; renal carcinoma
Listed compounds paired with reported GI%

Answered cases to consult:
INSERT INTO assay_data (compound, measurement_target, value_kind, meas_value) VALUES
  ('c1ccc(-n2cc(C3CC(c4nc5ccccc5[nH]4)=NN3)c(-c3cc4ccccc4o3)n2)cc1 (stereo not drawn)', 'A498', 'GI%', '54.33%'),
  ('COc1ccc(C2=NNC(c3cn(-c4ccccc4)nc3-c3cc4ccccc4o3)C2)cc1OC (stereo not drawn)', 'A498', 'GI%', '7.63%');

For reference, reported GI% for COc1ccc(C2=NN(C(C)=O)C(c3cn(-c4ccccc4)nc3-c3cc4ccccc4o3)C2)cc1OC (stereo not drawn) stands at 3.05%

get_value(item= CC(=O)N1N=C(c2nc3ccccc3[nH]2)CC1c1cn(-c2ccccc2)nc1-c1cc2ccccc2o1 (stereo not drawn) , readout=GI%) returns 5.12%

Lab note: COc1ccc(C2=NNC(c3cn(-c4ccccc4)nc3-c3cc4ccccc4o3)C2)cc1 (stereo not drawn) gave GI% of 2.47%

Recorded GI% (compound c1ccc(C2=NNC(c3cn(-c4ccccc4)nc3-c3cc4ccccc4o3)C2)cc1 (stereo not drawn) ): 6.22%

* * *

Catalogue of compounds with associated GI%
Tested on: UACC-257
Details: single dose 10 μM; melanoma

Worked examples, 3 compounds total:
INSERT INTO measurements (compound, meas_value) VALUES
  ('c1ccc(-n2cc(C3CC(c4nc5ccccc5[nH]4)=NN3)c(-c3cc4ccccc4o3)n2)cc1 (centres unmarked)', '79.15%'),
  ('c1ccc(C2=NNC(c3cn(-c4ccccc4)nc3-c3cc4ccccc4o3)C2)cc1 (centres unmarked)', '6.06%'),
  ('COc1ccc(C2=NN(C(C)=O)C(c3cn(-c4ccccc4)nc3-c3cc4ccccc4o3)C2)cc1OC (centres unmarked)', '6.12%');

// COc1ccc(C2=NNC(c3cn(-c4ccccc4)nc3-c3cc4ccccc4o3)C2)cc1OC (centres unmarked) : GI% value = 45.64%

Value of GI% reported for the compound CC(=O)N1N=C(c2nc3ccccc3[nH]2)CC1c1cn(-c2ccccc2)nc1-c1cc2ccccc2o1 (centres unmarked) is 1.22%

* * *

Tested on: TK-10
Settings: single dose 10 μM; renal carcinoma
Below, each entry is listed alongside its reported GI%.
// note: answer is a bare numeric in %

Study these solved cases before continuing.
INSERT INTO measurements (compound, value_kind, meas_value) VALUES
  ('CC(=O)N1N=C(c2nc3ccccc3[nH]2)CC1c1cn(-c2ccccc2)nc1-c1cc2ccccc2o1 (stereo not shown) [4d]', 'GI%', 15.06),
  ('COc1ccc(C2=NNC(c3cn(-c4ccccc4)nc3-c3cc4ccccc4o3)C2)cc1OC (stereo not shown) [3c]', 'GI%', 42.27),
  ('COc1ccc(C2=NN(C(C)=O)C(c3cn(-c4ccccc4)nc3-c3cc4ccccc4o3)C2)cc1 (stereo not shown) [4b]', 'GI%', 7.73),
  ('c1ccc(-n2cc(C3CC(c4nc5ccccc5[nH]4)=NN3)c(-c3cc4ccccc4o3)n2)cc1 (stereo not shown) [3d]', 'GI%', 75.14),
  ('CC(=O)N1N=C(c2ccccc2)CC1c1cn(-c2ccccc2)nc1-c1cc2ccccc2o1 (stereo not shown) [4a]', 'GI%', 11.62);

Sure, the documented GI% for COc1ccc(C2=NNC(c3cn(-c4ccccc4)nc3-c3cc4ccccc4o3)C2)cc1 (stereo not shown) [3b] is 3.17

The recorded GI% for c1ccc(C2=NNC(c3cn(-c4ccccc4)nc3-c3cc4ccccc4o3)C2)cc1 (stereo not shown) [3a] is 10.65

* * *

Collected GI% values appear next to each entry.
Tested on: 786–0
Settings: single dose 10 μM; renal carcinoma
Provide only the numeric value, understood in %.

# example entries with known answers
INSERT INTO results (molecule, meas_value) VALUES
  ('c1ccc(-n2cc(C3CC(c4nc5ccccc5[nH]4)=NN3)c(-c3cc4ccccc4o3)n2)cc1 (centres unmarked)', 71.73),
  ('COc1ccc(C2=NNC(c3cn(-c4ccccc4)nc3-c3cc4ccccc4o3)C2)cc1OC (centres unmarked)', 52.36),
  ('COc1ccc(C2=NN(C(C)=O)C(c3cn(-c4ccccc4)nc3-c3cc4ccccc4o3)C2)cc1OC (centres unmarked)', 4.42),
  ('CC(=O)N1N=C(c2ccccc2)CC1c1cn(-c2ccccc2)nc1-c1cc2ccccc2o1 (centres unmarked)', 2.59);

Okay, now this molecule:
Consider CC(=O)N1N=C(c2nc3ccccc3[nH]2)CC1c1cn(-c2ccccc2)nc1-c1cc2ccccc2o1 (centres unmarked) . Its measured GI% is 4.06

* * *

Test system: SR
Settings: single dose 10 μM; leukemia
Value Kind: GI% (%)
Give just the number in %; leave the unit off.

The cases that follow already have their GI% on record.
INSERT INTO measurements (compound, meas_value) VALUES
  ('COc1ccc(C2=NN(C(C)=O)C(c3cn(-c4ccccc4)nc3-c3cc4ccccc4o3)C2)cc1OC (centres unmarked) [4c]', 16.71),
  ('COc1ccc(C2=NNC(c3cn(-c4ccccc4)nc3-c3cc4ccccc4o3)C2)cc1 (centres unmarked) [3b]', 7.24),
  ('COc1ccc(C2=NN(C(C)=O)C(c3cn(-c4ccccc4)nc3-c3cc4ccccc4o3)C2)cc1 (centres unmarked) [4b]', 12.12),
  ('CC(=O)N1N=C(c2ccccc2)CC1c1cn(-c2ccccc2)nc1-c1cc2ccccc2o1 (centres unmarked) [4a]', 17.00),
  ('c1ccc(C2=NNC(c3cn(-c4ccccc4)nc3-c3cc4ccccc4o3)C2)cc1 (centres unmarked) [3a]', 15.96),
  ('COc1ccc(C2=NNC(c3cn(-c4ccccc4)nc3-c3cc4ccccc4o3)C2)cc1OC (centres unmarked) [3c]', 77.33),
  ('CC(=O)N1N=C(c2nc3ccccc3[nH]2)CC1c1cn(-c2ccccc2)nc1-c1cc2ccccc2o1 (centres unmarked) [4d]', 18.72);

Measured GI%, c1ccc(-n2cc(C3CC(c4nc5ccccc5[nH]4)=NN3)c(-c3cc4ccccc4o3)n2)cc1 (centres unmarked) [3d] : 91.17

* * *

Test system: SK-MEL-5
Conditions: single dose 10 μM; melanoma
Lab note - cut at 5% for GI%: YES if strictly below, NO if not.

Examples with answers:
INSERT INTO measurements (molecule, label_value) VALUES
  ('COc1ccc(C2=NNC(c3cn(-c4ccccc4)nc3-c3cc4ccccc4o3)C2)cc1OC (stereo not drawn)', 'NO'),
  ('CC(=O)N1N=C(c2ccccc2)CC1c1cn(-c2ccccc2)nc1-c1cc2ccccc2o1 (stereo not drawn)', 'YES'),
  ('COc1ccc(C2=NN(C(C)=O)C(c3cn(-c4ccccc4)nc3-c3cc4ccccc4o3)C2)cc1OC (stereo not drawn)', 'NO'),
  ('c1ccc(-n2cc(C3CC(c4nc5ccccc5[nH]4)=NN3)c(-c3cc4ccccc4o3)n2)cc1 (stereo not drawn)', 'NO');

## Task is_below(GI%, 5%) for c1ccc(C2=NNC(c3cn(-c4ccccc4)nc3-c3cc4ccccc4o3)C2)cc1 (stereo not drawn) ?
## Result YES

## Task Hello, I'm reviewing records and need to know if GI% of CC(=O)N1N=C(c2nc3ccccc3[nH]2)CC1c1cn(-c2ccccc2)nc1-c1cc2ccccc2o1 (stereo not drawn) is below 5%. Could you check?
## Result YES

* * *

Target: EGFR (WT) (Homo sapiens)
Sequence (P00533 25-1210): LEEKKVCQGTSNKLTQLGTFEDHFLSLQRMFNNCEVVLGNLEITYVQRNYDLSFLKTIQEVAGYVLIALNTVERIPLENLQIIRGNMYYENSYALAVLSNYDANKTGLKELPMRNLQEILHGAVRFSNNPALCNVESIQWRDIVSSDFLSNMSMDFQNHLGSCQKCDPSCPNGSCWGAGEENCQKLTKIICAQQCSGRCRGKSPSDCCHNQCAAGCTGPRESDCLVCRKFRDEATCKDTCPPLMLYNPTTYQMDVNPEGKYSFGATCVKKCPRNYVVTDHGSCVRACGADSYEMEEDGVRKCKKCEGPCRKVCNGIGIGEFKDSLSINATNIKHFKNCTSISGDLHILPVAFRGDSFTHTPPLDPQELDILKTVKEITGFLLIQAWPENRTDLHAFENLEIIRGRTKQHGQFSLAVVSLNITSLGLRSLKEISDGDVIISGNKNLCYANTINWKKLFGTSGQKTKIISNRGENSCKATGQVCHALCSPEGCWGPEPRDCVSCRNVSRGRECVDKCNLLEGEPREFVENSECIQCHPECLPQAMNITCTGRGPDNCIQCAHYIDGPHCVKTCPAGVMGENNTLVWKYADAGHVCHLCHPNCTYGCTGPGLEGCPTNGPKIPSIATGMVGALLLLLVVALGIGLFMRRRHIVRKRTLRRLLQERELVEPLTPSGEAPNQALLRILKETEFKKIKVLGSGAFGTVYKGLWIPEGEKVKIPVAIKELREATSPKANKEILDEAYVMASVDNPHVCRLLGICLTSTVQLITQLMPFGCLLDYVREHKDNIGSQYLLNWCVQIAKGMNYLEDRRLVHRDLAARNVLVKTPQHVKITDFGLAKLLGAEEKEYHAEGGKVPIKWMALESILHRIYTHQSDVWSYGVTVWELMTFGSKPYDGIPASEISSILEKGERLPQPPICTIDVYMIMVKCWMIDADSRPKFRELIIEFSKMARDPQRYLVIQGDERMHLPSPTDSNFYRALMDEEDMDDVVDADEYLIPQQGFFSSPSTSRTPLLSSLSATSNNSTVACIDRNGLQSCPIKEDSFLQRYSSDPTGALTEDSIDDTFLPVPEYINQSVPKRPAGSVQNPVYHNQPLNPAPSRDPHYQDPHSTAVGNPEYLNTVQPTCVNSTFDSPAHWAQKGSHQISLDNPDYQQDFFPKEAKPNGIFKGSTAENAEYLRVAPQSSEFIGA
Value Kind: IC50 (µM)
Only the number, expressed in µM, is required.

Assay EGFR (WT) (Homo sapiens), sample c1ccc(-n2cc(C3CC(c4nc5ccccc5[nH]4)=NN3)c(-c3cc4ccccc4o3)n2)cc1 (stereo not shown) [3d] , IC50 read: 0.398

* * *

Test system: MOLT-4
Details: single dose 10 μM; leukemia
Please note: GI% exactly at 7% is n. Only values below 7% get y.

Here's what some known entries look like.
INSERT INTO measurements (compound, label_value) VALUES
  ('COc1ccc(C2=NNC(c3cn(-c4ccccc4)nc3-c3cc4ccccc4o3)C2)cc1OC (centres unmarked) [3c]', 'n'),
  ('c1ccc(-n2cc(C3CC(c4nc5ccccc5[nH]4)=NN3)c(-c3cc4ccccc4o3)n2)cc1 (centres unmarked) [3d]', 'n'),
  ('COc1ccc(C2=NN(C(C)=O)C(c3cn(-c4ccccc4)nc3-c3cc4ccccc4o3)C2)cc1 (centres unmarked) [4b]', 'n'),
  ('COc1ccc(C2=NNC(c3cn(-c4ccccc4)nc3-c3cc4ccccc4o3)C2)cc1 (centres unmarked) [3b]', 'n'),
  ('CC(=O)N1N=C(c2nc3ccccc3[nH]2)CC1c1cn(-c2ccccc2)nc1-c1cc2ccccc2o1 (centres unmarked) [4d]', 'y'),
  ('COc1ccc(C2=NN(C(C)=O)C(c3cn(-c4ccccc4)nc3-c3cc4ccccc4o3)C2)cc1OC (centres unmarked) [4c]', 'n');

Next item in the queue.
## Task State whether 7% exceeds GI% recorded for c1ccc(C2=NNC(c3cn(-c4ccccc4)nc3-c3cc4ccccc4o3)C2)cc1 (centres unmarked) [3a] .
## Result y
